- system_tested: hMC1r (Homo sapiens)
- Sequence (Q01726 whole entry): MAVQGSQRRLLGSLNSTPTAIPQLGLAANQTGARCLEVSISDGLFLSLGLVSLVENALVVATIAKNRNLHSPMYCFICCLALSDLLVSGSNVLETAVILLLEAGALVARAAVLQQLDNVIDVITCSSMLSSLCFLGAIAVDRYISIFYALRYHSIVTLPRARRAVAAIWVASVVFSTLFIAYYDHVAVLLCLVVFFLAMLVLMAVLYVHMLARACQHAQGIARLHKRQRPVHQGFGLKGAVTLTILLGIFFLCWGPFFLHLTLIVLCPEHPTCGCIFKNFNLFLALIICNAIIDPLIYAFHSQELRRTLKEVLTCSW
- procedure_summary: Assay for agonist activity: cAMP accumulation in HBL melanoma cells
- Type: cell-based
- Parameters: endogenous in cells; host or cells: HBL human melanoma cells
- condition_parameters: HBL, compared to NDP-α-MSH as 100%, read-out: MC-1 Emax (average; cAMP HBL)
property_label: Emax (%)
Just the number please, in %, no unit attached.

CCCCC(NC(C)=O)C(=O)N[C@H]1CCC(=O)NCC[C@@H](C(N)=O)NC(=O)[C@H](CCCNC(=N)N)NC(=O)[C@@H](Cc2ccccc2)NC(=O)[C@H](Cc2c[nH]cn2)NC1=O (stereo partly shown) : 85
CCCC[C@H](NC(C)=O)C(=O)N[C@H]1CCC(=O)NCC[C@@H](C(=O)N[C@@H](Cc2c[nH]c3ccccc23)C(N)=O)NC(=O)[C@H](CCCNC(=N)N)NC(=O)[C@H](Cc2ccccc2)NC(=O)[C@H](Cc2c[nH]cn2)NC1=O : 88
CCCC[C@H](NC(C)=O)C(=O)N[C@H]1CCC(=O)NCC[C@@H](C(=O)N[C@@H](Cc2c[nH]c3ccccc23)C(N)=O)NC(=O)[C@H](CCCNC(=N)N)NC(=O)[C@@H](Cc2ccccc2)NC(=O)[C@H](CCCNC(=N)N)NC1=O : 100

Let us move to another entry and its Emax.
(Q) Item: `CCCC[C@H](NC(C)=O)C(=O)N[C@H]1CCC(=O)NCC[C@@H](C(=O)N[C@H](Cc2c[nH]c3ccccc23)C(N)=O)NC(=O)[C@H](CCCNC(=N)N)NC(=O)[C@@H](Cc2ccccc2)NC(=O)[C@H](Cc2c[nH]cn2)NC1=O` Test system: hMC1r (Homo sapiens) Read-out: Emax Value: ?
(A) 93
